- SYSTEM: T1, hIL1RAP (Homo sapiens, UniProt Q9NPH3)
- T1 sequence (Q9NPH3 21-367 limits assumed): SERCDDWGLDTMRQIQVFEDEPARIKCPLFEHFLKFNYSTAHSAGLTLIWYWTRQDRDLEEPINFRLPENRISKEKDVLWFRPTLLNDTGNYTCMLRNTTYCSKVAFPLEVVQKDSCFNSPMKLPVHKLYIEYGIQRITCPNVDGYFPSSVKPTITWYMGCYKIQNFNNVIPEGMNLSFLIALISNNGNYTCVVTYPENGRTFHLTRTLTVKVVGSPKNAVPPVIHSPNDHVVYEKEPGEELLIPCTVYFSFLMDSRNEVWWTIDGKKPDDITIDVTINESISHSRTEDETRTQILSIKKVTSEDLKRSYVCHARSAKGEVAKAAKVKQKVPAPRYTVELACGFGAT
- PROCEDURE_SUMMARY: Kinetics of IL1RAP mAbs by Octet, human IL1RAP
- Type: binding
- Parameters: extracellular domain His-tagged, Cat #10121-H08H; His; purchased Sino Biological lot MB08MA1301 (catalogue number not given)
The threshold is 0.0004 s⁻¹. Values of hIL1RAP kdis(1/s) beneath it are tagged yes; values meeting or exceeding it are tagged no.

Worked cases, answers included:
[[record]]
molecule = "74804_12A21B: anti-IL1RAP mAb; VH SEQ ID NO:6, VL SEQ ID NO:23, κ light chain (antibody, V domains shown, 74804_12A21B VH and 74804_29D13A VH; 74804_12A21B VL) VH: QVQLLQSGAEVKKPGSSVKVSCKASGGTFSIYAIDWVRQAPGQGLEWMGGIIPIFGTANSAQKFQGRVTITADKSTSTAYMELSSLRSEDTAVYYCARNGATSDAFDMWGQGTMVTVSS VL: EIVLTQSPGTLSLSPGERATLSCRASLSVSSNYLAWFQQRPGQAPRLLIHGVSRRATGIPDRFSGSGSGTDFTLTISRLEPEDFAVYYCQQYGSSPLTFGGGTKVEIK"
category = "yes"

[[record]]
molecule = "74804_27I24A: anti-IL1RAP mAb; VH SEQ ID NO:13, VL SEQ ID NO:29, λ light chain (antibody, V domains shown, 74804_27I24A VH; 74804_27I24A VL) VH: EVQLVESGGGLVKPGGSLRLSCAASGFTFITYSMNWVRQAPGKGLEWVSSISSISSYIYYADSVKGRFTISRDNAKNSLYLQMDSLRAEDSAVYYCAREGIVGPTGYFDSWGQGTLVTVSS VL: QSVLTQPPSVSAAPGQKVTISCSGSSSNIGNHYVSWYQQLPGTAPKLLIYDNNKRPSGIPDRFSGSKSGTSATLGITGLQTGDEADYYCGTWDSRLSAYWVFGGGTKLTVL"
category = "no"


Exercise: hey, is hIL1RAP kdis(1/s) for 74804_05B24A: anti-IL1RAP mAb; VH SEQ ID NO:10, VL SEQ ID NO:26, κ light chain (antibody, V domains shown, 74804_05B24A VH; 74804_05B24A VL) VH: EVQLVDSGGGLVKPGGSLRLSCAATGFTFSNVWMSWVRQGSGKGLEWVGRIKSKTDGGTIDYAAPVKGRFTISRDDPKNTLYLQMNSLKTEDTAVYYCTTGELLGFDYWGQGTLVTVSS VL: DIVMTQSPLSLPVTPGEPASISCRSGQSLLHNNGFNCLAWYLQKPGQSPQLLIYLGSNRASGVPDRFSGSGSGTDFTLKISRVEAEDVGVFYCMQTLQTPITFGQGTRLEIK lower than 0.0004 s⁻¹ or not?
Solution: no

Exercise: hey, is hIL1RAP kdis(1/s) for 74804_45C18A: anti-IL1RAP mAb; VH SEQ ID NO:11, VL SEQ ID NO:27, κ light chain (antibody, V domains shown, 74804_45C18A VH; 74804_45C18A VL) VH: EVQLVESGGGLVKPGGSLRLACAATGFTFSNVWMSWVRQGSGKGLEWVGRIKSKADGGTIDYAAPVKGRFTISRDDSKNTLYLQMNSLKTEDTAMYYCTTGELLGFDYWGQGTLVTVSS VL: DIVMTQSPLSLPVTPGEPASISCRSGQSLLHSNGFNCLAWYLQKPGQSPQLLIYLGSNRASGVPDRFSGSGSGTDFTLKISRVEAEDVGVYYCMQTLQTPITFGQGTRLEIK lower than 0.0004 s⁻¹ or not?
Solution: yes

The values you see were collected from patent US20240392013A1.
